Biological target: UniProt:P22303
Sequence (P22303 whole entry): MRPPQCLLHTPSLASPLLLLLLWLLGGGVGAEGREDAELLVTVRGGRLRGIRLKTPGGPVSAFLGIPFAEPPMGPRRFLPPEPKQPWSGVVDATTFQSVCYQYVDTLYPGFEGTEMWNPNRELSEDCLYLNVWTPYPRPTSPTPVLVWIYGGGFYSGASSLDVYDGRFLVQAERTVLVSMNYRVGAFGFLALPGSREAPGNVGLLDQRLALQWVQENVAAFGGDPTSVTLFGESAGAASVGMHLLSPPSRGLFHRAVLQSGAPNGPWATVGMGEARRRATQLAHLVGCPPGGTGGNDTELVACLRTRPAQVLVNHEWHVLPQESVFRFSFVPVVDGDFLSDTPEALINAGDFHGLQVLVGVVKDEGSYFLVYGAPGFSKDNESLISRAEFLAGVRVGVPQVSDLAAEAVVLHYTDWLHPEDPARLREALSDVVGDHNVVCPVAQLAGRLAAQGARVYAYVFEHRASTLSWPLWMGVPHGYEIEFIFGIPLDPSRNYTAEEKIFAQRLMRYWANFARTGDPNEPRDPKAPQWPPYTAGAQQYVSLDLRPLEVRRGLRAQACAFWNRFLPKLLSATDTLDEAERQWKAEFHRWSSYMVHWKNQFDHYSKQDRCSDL
pKi: −log10 of the molar value.
// label = Satisfied if pKi is not less than 6, otherwise Not satisfied

SMILES_REPRESENTATION	TARGET_UNDER_TEST	CLASS_NAME
O=C(Cc1cc(=O)oc2cc(O)ccc12)NCCCCNc1c2c(nc3ccccc13)CCCC2	UniProt:P22303	Satisfied
CCN(CCC(=O)NCCCNc1c2c(nc3ccccc13)CCCC2)C1CCCCC1	UniProt:P22303	Satisfied
CCN(CCC(=O)NCCCCNc1c2c(nc3ccccc13)CCCC2)C1CCCCC1	UniProt:P22303	Satisfied
O=C(Cc1cc(=O)oc2cc(O)ccc12)NNC(=S)Nc1c2c(nc3ccccc13)CCCC2	UniProt:P22303	Not satisfied

Moving on to the next compound.
Reported pKi reaches at least 6 for O=C(Cc1cc(=O)oc2cc(O)ccc12)N/N=C1\SCC(=O)N1c1c2c(nc3ccccc13)CCCC2 ?
Not satisfied
